- Tested on: MALME-3M melanoma
- PROTOCOL NOTES: NCI-60 one-dose screen, 48 h (100 = growth as untreated, 0 = no growth, -100 = all killed)
- CONDITION PARAMETERS: 10 µM unless noted
The panel holds about 83,000 compounds, 20% with a hit somewhere; the sample as a whole holds those more often.
Exercise: state measured growth for each of the compounds provided.
Answers are plain numbers, in %.

COMPOUND | TARGET ENTITY | UNIT OF MEASUREMENT | MEASURED
O=C(O)c1ccc(NC(=O)c2ccc(Nc3ccnc(C(F)(F)F)c3)cc2)cc1 | MALME-3M melanoma | % | 103
COc1cc2c(c(OC)c1OC)-c1ccc(NN(C(=O)c3ccccc3)C(=O)c3ccccc3)c(=O)cc1[C@@H](NC(C)=O)CC2 (tested in a mixture with another compound) | MALME-3M melanoma | % | 39.4
CSc1nnc(C2=CC(=O)c3ccccc3C2=O)n1-c1ccccc1 | MALME-3M melanoma | % | 84.9

Moving on to another compound below.
# growth of "C=C(C[C@@](O)(C(=O)Oc1ccccc1)C(=O)C1CCCCC1)c1ccccc1" = 101
